- Test system: MIWI (PIWIL1) piRISC loaded with piRNA #1 (30 nt);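 also: 1 nM active piRISC with 0.1 nM target library at 33 °C single turnover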
- method: pre-steady-state target cleavage rate (min^-1); higher = faster piRNA-guided slicing of the target
- measurement-context: guide: piRNA #1 5'p-UGAGGUAGUAGGUUGUAUAGUAUCCAGAGG; auxiliary factor: 500 nM mouse GTSF1
In all, about 6,200 sequences were measured (“pre-steady-state target cleavage rate”: median about 0.29, highest 2% from about 2 on). Shown is part of a subset that was picked to be rich in the highest values.
Task for the reader: assign each of the following sequences its reported pre-steady-state target cleavage rate.
Number, no unit, nothing else.

Look at this sequence and give its reported pre-steady-state target cleavage rate. GGAGAAGAUACUAUACAACCUACUACCUCA 2.04

Name the reported pre-steady-state target cleavage rate value associated with the sequence GGAGACCUAUCUAUACAACCUUCUACCACA 0.136

For GCUCUGGAUACUAUACAACCUACUACUUCA , what is its reported pre-steady-state target cleavage rate? 2.26

What does the data say about its pre-steady-state target cleavage rate? Entry: GGAGACCUUACUAUACAACCUACUACCCCA 0.956

State the recorded pre-steady-state target cleavage rate for this entry: GGAGACGAUACUAUACAACCUAGAUCCUCA 0.113

May I ask what pre-steady-state target cleavage rate has been recorded for GCUCUGGGAUACUAUACAACCUACUACCUCA ? 1.89

So what does the record say about pre-steady-state target cleavage rate for CCUCUGGAUAGUAUACAACGUACUACCUCA ? 0.0367

pre-steady-state target cleavage rate lookup needed for GGACUGCGAUACUAUACAACCUACUACCUCA , thanks. 1.79

Quick one: pre-steady-state target cleavage rate of CCUCAGGAUACUAUACAACCUACUAGCUCA ? 1.13

What measured pre-steady-state target cleavage rate goes with GGAGAGGAUACUAUACAACCUACCUACCUCA ? 1.05

Data request, read-out pre-steady-state target cleavage rate, for GCUCUGGAUACUAUACAACCUACUACCUUCA 1.9

Can you look up the measured pre-steady-state target cleavage rate of GCUCAGGAUACUAUACAACCUACUACCUGA for me? 0.681

# input sequence: GGAGUGAGAUACUAUACAACCUACUACCUCA ; wanted: its pre-steady-state target cleavage rate 1.77

----------
- Test system: MIWI (PIWIL1) piRISC loaded with piRNA #1 (30 nt);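 also: 1 nM active piRISC with 0.1 nM target library at 33 °C single turnover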
- method: pre-steady-state target cleavage rate (min^-1); MIWI and MILI are mouse PIWI proteins and EfPiwi is from a freshwater sponge; tags in brackets are library labels; higher = faster piRNA-guided slicing of the target;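 also: 1 nM active piRISC with 0.1 nM target library at 33 °C single turnover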
- measurement-context: guide: piRNA #1 5'p-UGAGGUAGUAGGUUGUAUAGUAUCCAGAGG; auxiliary factor: 500 nM mouse GTSF1
Whole data set: some 6,200 sequences, median “pre-steady-state target cleavage rate” near 0.29, cut for the highest 2% near 2. The entries come from a sample that favours the highest values as a whole.
property: pre-steady-state target cleavage rate
Answer with the value's number alone.

pre-steady-state target cleavage rate for GGAGUGGAUACUAUACAACCUACGUACCUCA ? 0.712

pre-steady-state target cleavage rate lookup needed for GGAGACCUAACAAUACAACCUACUACCUGA , thanks. 0.00542

Could you share which pre-steady-state target cleavage rate value was measured for GCUCUGCAUACUAUACAACCUACUACGUCA ? 1.24

Dear colleague, I am looking for the recorded pre-steady-state target cleavage rate of the following sequence: GGAGAGCAUACUAUACAACGUACUACCUCA 0.557

Can you share its pre-steady-state target cleavage rate? I mean this sequence: GGAGACCUAUGUAUACAACCUACUACCUGCA 0.0855

Name the recorded pre-steady-state target cleavage rate for GGACUGGAAACUUUACAACCUACUACCUCA . 0.689

Bench note: what pre-steady-state target cleavage rate did GGAGACCAUACUAAACAACCUACUACCUGA show? 0.604

Dear colleague, I am looking for the recorded pre-steady-state target cleavage rate of the following sequence: GGAGACCUAACUUAUACAACCUACUACCUCA 0.23

Need pre-steady-state target cleavage rate of CAUCUGGAUACUAUACAACCUACUACCUCA , thanks. 1.37

So what's the measured pre-steady-state target cleavage rate for this one? GGAGACCUAUGUAUACAUCCUAGUACCUCA 0.00528

Which pre-steady-state target cleavage rate reading was recorded for the sequence GGACUGGAUACGAUACAACCUACUACCUCA ? 1.64

Returns the measured pre-steady-state target cleavage rate for the input sequence. Input: GCUCUGGAUACUAUACAACCUACUUACCUCA 2.1

Reported pre-steady-state target cleavage rate for GGAGACCUUACUAUACAACCUACUUCCUCA : what is it? 0.399

I am curious: what pre-steady-state target cleavage rate value has been reported for GCUCUGGAUACUAUACAACCUCUACCUCA ? 0.00616

Data request, read-out pre-steady-state target cleavage rate, for GCUCUGGAUAGUAUUCAACCUACUACCUCA 0.849

Which pre-steady-state target cleavage rate value belongs to GGUCACCAUACUAUACAACCUACUACCUCA ? 1.77

What does the data say about its pre-steady-state target cleavage rate? Entry: GGACUGCUUACUAUACAACCUACUACCUCA 1.54

pre-steady-state target cleavage rate lookup needed for GGUCUGGAUACUAUACAACCUACUUACCUCA , thanks. 1.23

Reported pre-steady-state target cleavage rate for GCUCUGCAUACAAUACAACCUACUACCUCA : what is it? 1.82

For CCUCUGAUACUAUACAACCUACUACCUCA , what is its reported pre-steady-state target cleavage rate? 2.11

So what does the record say about pre-steady-state target cleavage rate for GCUCUAGGAUACUAUACAACCUACUACCUCA ? 1.85

Fill in: pre-steady-state target cleavage rate of GGAGUGGAGACUAUACAACCUACUACCUCA is ___ 1.65

State the recorded pre-steady-state target cleavage rate for this entry: GGUCUAGAUACUAUACAACCUACUACCUCA 1.81

Look at this sequence and give its reported pre-steady-state target cleavage rate. GGAGACCUAUCUAUAGAACCUAGUACCUCA 0.0363

Data request, read-out pre-steady-state target cleavage rate, for GCACUCGAUACUAUACAACCUACUACCUCA 1.43

So what does the record say about pre-steady-state target cleavage rate for GGAGACCAUACUAUACAACCUACUACCUUCA ? 1.59

Please look up its pre-steady-state target cleavage rate: GGAGACGAUACUAUACAACCUACAUCCUCA 0.342

# query: pre-steady-state target cleavage rate of entry GGUCUGGAUUCUAUAGAACCUACUACCUCA 0.979

What does the record list as pre-steady-state target cleavage rate for GGAGACCUAACUUACAACCUACUACCUCA ? 0.00932

Requested field: pre-steady-state target cleavage rate. Item: GGACUCGAUACUAUACAACCUACUACCUCA 1.69

Tell me the measured pre-steady-state target cleavage rate of GGACUCGAUACUAUACAACCUACUACCACA , please. 0.579

Sample CCUGUGCAUACUAUACAACCUACUACCUCA — what was its pre-steady-state target cleavage rate? 2.3

# pre-steady-state target cleavage rate lookup, item GGUCUGGAUACUAUACAACCUACUACCUCU [g2:g28:cont:t1U] 1.59

Which value of pre-steady-state target cleavage rate has been reported for CCUCUGGAUACUAUACUACCUACUACCACA in the records? 1.68

What value of pre-steady-state target cleavage rate has been reported for the following sequence? GGAGACGAUACAAUACAACCUACUACCUCA 1.29

Which pre-steady-state target cleavage rate value belongs to GCUCUGGAUACUAUACAACCUACUACCUCU [g2:g29:cont:t1U] ? 2.16

Give the measured pre-steady-state target cleavage rate of CCUCUGGAUACUAUACAACCUACUACACUCA . 0.874

Fill blank: measured pre-steady-state target cleavage rate of the sequence GCUCUCGAUACUAUACAACCUACUACCACA is ____. 2.17

// returns reported pre-steady-state target cleavage rate for input GGUCUGGAUACUAUACAACCUACUACCUCC [g2:g28:cont:t1C] 1.54

Reported pre-steady-state target cleavage rate, sequence GGAGACCAUACUAUACAACCUACUACUUCA : ____ 2.14

What value of pre-steady-state target cleavage rate has been reported for the following sequence? GGAGACCAUACUAUACAACCUACUACCAUCA 1.35

Item GGUCUCCAUACUAUACAACCUACUACCUCA has what recorded pre-steady-state target cleavage rate? 1.79

Find the recorded pre-steady-state target cleavage rate belonging to GCUCUCCUUACUAUACAACCUACUACCUCA and report it. 1.85

Can you share its pre-steady-state target cleavage rate? I mean this sequence: CACUCUGGAUACUAUACAACCUACUACCUCA 2.09

Which pre-steady-state target cleavage rate is reported for this sequence? GCACUGGAUACUAUACAUCCUACUACCUCA 1.88

Looking for the measured pre-steady-state target cleavage rate of CCUCUGCAUACAAUACAACCUACUACCUCA , can you help? 2.02

Endpoint output: pre-steady-state target cleavage rate of GGUCUGCAUACUUUACAACCUACUACCUCA . Value? 1.48

Record request: pre-steady-state target cleavage rate value, item GGACUAGAUACUAUACAACCUACUACCUCA 1.77
